- assayExplanation: Phase 1 SAD/MAD study of inhaled compound 1 in healthy subjects
- Assay type: in vivo, human
- conditionDescription: human, plasma, inhaled or intranasal, 1 mg, healthy subjects, inhaled 1 mg QD, Day 1, mean
assayEndpoint: Cmax (ng/mL)
Supply the numeric figure in ng/mL, leaving out any unit text.

The compound "CCc1cc(O)ccc1-c1ccc2c(-c3nc4c([nH]3)CN(C(C)C)[C@H](C(=O)N3CC(N(C)C)C3)C4)n[nH]c2c1" showed Cmax equal to 5.33

###

- assayExplanation: Phase 1 SAD/MAD study of inhaled compound 1 in healthy subjects
- Format: in vivo, human
- conditionDescription: human, plasma, inhaled or intranasal, 3 mg, healthy subjects, single inhaled dose 3 mg, mean; read-out: AUC0-24
assayEndpoint: AUC(0-t) (ng·h/mL)
Supply the numeric figure in ng·h/mL, leaving out any unit text.

The compound "CCc1cc(O)ccc1-c1ccc2c(-c3nc4c([nH]3)CN(C(C)C)[C@H](C(=O)N3CC(N(C)C)C3)C4)n[nH]c2c1" showed AUC(0-t) equal to 43.3

// data source = patent US20210346357A1
